Data credit: patent US7030137B2

Tested on: S. pneumo
protocol.summary: MIC S. pneumo (standard MIC assay modified by inclusion of cyclodextrin)
Format: cell-based
test.context: Streptococcus pneumoniae
Where a name gives a salt, the structure may show the parent alone.
Binarize MIC at 0.2 µg/mL; below is 1, at or above is 0.

- compound: "C=C(F)c1sc(CNCCCNc2nc3ccccc3[nH]2)c(C)c1Br [Example 22]"
  category: 0
- compound: "Cc1c(CNCCCNc2nc3ccccc3[nH]2)sc(C(F)F)c1Br [Example 23]"
  category: 0
- compound: "C=C(F)c1sc(CNCCCNc2nc3nnccc3[nH]2)c(C)c1Br [Example 14, dihydrochloride]"
  category: 0
- compound: "Cc1c(CNCCCNc2cc(=O)c3ccccc3[nH]2)sc(C(F)(F)F)c1Br [Example 8]"
  category: 1
- compound: "Cc1c(CNCCCNc2cc(=O)c3ccccc3[nH]2)sc(Br)c1Br [Example 1]"
  category: 1
- compound: "CCc1sc(CNCCCNc2cc(=O)c3ccccc3[nH]2)c(C)c1Br [Example 5]"
  category: 0
- compound: "C=C(F)c1sc(CNCCCNc2nc3cscc3[nH]2)c(C)c1Br [Example 21]"
  category: 0
- compound: "C=C(F)c1sc(CNCCCNc2nc3ncccc3[nH]2)c(C)c1Br [Example 17]"
  category: 0
- compound: "C=Cc1sc(CNCCCNc2nc3nnccc3[nH]2)c(C)c1Br [Example 13, dihydrochloride]"
  category: 0
